Cited source for all entries: patent US12209141B2

Assay: Pharmacokinetics in rat
Type: in vivo, SD Rat
Conditions: male, Sprague-Dawley, plasma, iv, single i.v. dose of 2 mg/kg
value-type: half-life (h)
Give the value in h but do not write h after it.

Ask | Query: half-life; subject: CC(C)C[C@@H](NCC(=O)O)C(=O)N1CCC[C@H]1C(=O)NCc1ccc(C(=N)N)cc1 [Compound of Formula (V)]
Reply | 5.02

---

Experiment: Solubility tests at different pH values
Type: physicochemical
Conditions: aqueous buffer, thermodynamic from solid, pH 4.0, buffered salt solution, 37° C.
value-type: solubility at 1 h (mM)
Give the value in mM but do not write mM after it.

Ask | Query: solubility at 1 h; subject: CCOC(=O)CN[C@H](CC(C)C)C(=O)N1CCC[C@H]1C(=O)NCc1ccc(C(N)=NC(=O)OCc2oc(=O)oc2C)cc1.Cl
Reply | 7.72

Ask | And then CCCCCCOC(=O)N=C(N)c1ccc(CNC(=O)[C@@H]2CCCN2C(=O)[C@@H](CC(C)C)NCC(=O)OCC)cc1.Cl , what is it?
Reply | 5.84

Ask | And then CCOCCCOC(=O)N=C(N)c1ccc(CNC(=O)[C@@H]2CCCN2C(=O)[C@@H](CC(C)C)NCC(=O)OCC)cc1.Cl , what is it?
Reply | 6.52
